Measured IC50, listed per entry.
TGT: cathepsin S (Homo sapiens)
PROCEDURE_SUMMARY: In vitro assay for inhibition of cathepsin S
Assay type: biochemical
CONDITION_CONTEXT: r cathepsin S, substrate N-CBZ-Val-Val-Arg-AMC, pH 6.5, 10 min incubation at room temperature
MEASURED_PROPERTY: IC50 (µM)

COMPOUND: CC(=O)N/C=C(\NC(=O)[C@H](CC1CCCCC1)NC(=O)OCc1ccccc1)C(N)=O [Example 19b]
TGT: cathepsin S (Homo sapiens)
COMPARISON_OPERATOR: =
ASSAY_RESULT: 5.23
--
COMPOUND: CC(C)C[C@H](NC(=O)OCc1ccccc1)C(=O)N/C(=C\N1CCN(C)CC1)C(N)=O
TGT: cathepsin S (Homo sapiens)
COMPARISON_OPERATOR: =
ASSAY_RESULT: 0.18
--
COMPOUND: CCOC(=O)/C(=C\N1CCOCC1)NC(=O)[C@H](CC(C)C)NC(=O)OCc1ccccc1
TGT: cathepsin S (Homo sapiens)
COMPARISON_OPERATOR: =
ASSAY_RESULT: 0.038
--
COMPOUND: CC(=O)N/C=C(\NC(=O)[C@H](CC(C)C)NC(=O)OCc1ccccc1)C(N)=O [Example 10b]
TGT: cathepsin S (Homo sapiens)
COMPARISON_OPERATOR: >
ASSAY_RESULT: 3.2

----------
TGT: rat cathepsin L (Rattus norvegicus)
Sequence (P07154 114-334): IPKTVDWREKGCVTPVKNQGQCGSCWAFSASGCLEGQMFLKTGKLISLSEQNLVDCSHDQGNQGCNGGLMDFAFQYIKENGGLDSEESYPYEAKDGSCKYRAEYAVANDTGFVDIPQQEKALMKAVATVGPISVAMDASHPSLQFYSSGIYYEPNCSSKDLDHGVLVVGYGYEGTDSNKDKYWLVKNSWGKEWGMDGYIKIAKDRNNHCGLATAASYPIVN
PROCEDURE_SUMMARY: In vitro assay for inhibition of cathepsin L
Assay type: biochemical
CONDITION_CONTEXT: r rat cathepsin L, substrate N-CBZ-Phe-Arg-AMC, pH 5.0, 10 min incubation at room temperature
Below: a set of entries, each annotated with reported IC50.

SMILES_REPRESENTATION: CCOC(=O)/C(=C\N1CCOCC1)NC(=O)[C@H](Cc1ccccc1)NC(=O)OCc1ccccc1
IC50: 0.04 µM
//
SMILES_REPRESENTATION: NC=C(NC(=O)[C@H](Cc1ccccc1)NC(=O)OCc1ccccc1)C(N)=O
IC50: 0.0055 µM
//
SMILES_REPRESENTATION: CC(C)C[C@H](NC(=O)OCc1ccccc1)C(=O)NC(=CN)C(N)=O
IC50: 0.094 µM
//
SMILES_REPRESENTATION: CC(C)C[C@H](NC(=O)OCc1ccccc1)C(=O)NC(=CNCCO)C(N)=O
IC50: 0.23 µM

----------
TGT: cathepsin S (Homo sapiens, UniProt P25774)
Sequence (P25774 115-331, species assumed): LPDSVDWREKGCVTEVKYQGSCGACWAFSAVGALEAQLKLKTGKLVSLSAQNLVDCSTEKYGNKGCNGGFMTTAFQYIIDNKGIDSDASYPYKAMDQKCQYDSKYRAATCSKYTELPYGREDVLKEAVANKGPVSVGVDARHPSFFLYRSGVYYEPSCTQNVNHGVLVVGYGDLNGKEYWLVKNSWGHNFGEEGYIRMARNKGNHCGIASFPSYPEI
PROCEDURE_SUMMARY: In vitro assay for inhibition of cathepsin S
Assay type: biochemical
CONDITION_CONTEXT: r cathepsin S, substrate N-CBZ-Val-Val-Arg-AMC, pH 6.5, 10 min incubation at room temperature
# IC50 listing for each entry below
MEASURED_PROPERTY: IC50 (µM)

MOLECULE: O=C(CCc1ccccc1)N[C@@H](Cc1ccccc1)C(=O)N/C(=C/N1CCOCC1)C(=O)OC(c1ccccc1)c1ccccc1
MEASURED_PROPERTY: IC50
ASSAY_RESULT: 0.18

MOLECULE: CC(C)C[C@H](NC(=O)OCc1ccccc1)C(=O)N/C(=C/N1CCOCC1)C(=O)c1ccc(F)cc1
MEASURED_PROPERTY: IC50
ASSAY_RESULT: 50.3

MOLECULE: COc1ccc(C(=O)/C(=C\N2CCOCC2)NC(=O)[C@H](CC(C)C)NC(=O)OCc2ccccc2)cc1
MEASURED_PROPERTY: IC50
ASSAY_RESULT: 1.3

MOLECULE: CCOC(=O)/C(=C\N1CCOCC1)NC(=O)[C@H](CC1CCCCC1)NC(=O)OCc1ccccc1
MEASURED_PROPERTY: IC50
ASSAY_RESULT: 0.0033

MOLECULE: CC(C)C[C@H](NC(=O)OCc1ccccc1)C(=O)NC(=CNCc1ccccc1)C(N)=O
MEASURED_PROPERTY: IC50
ASSAY_RESULT: 0.061

MOLECULE: NC(=O)C(NC(=O)[C@H](Cc1ccccc1)NC(=O)OCc1ccccc1)C(O)O (stereo partly shown)
MEASURED_PROPERTY: IC50
ASSAY_RESULT: 0.004

MOLECULE: CC(C)C[C@H](NC(=O)OCc1ccccc1)C(=O)N/C(=C/N1CCOCC1)C(=O)OC(C)(C)C
MEASURED_PROPERTY: IC50
ASSAY_RESULT: 0.38

----------
TGT: cathepsin S (Homo sapiens, UniProt P25774)
PROCEDURE_SUMMARY: In vitro assay for inhibition of cathepsin S
Assay type: biochemical
CONDITION_CONTEXT: r cathepsin S, substrate N-CBZ-Val-Val-Arg-AMC, pH 6.5, 10 min incubation at room temperature

MOLECULE: COC(=O)[C@H](Cc1ccccc1)N/C=C(/NC(=O)[C@H](Cc1ccccc1)NC(=O)OCc1ccccc1)C(N)=O [Example 30a]
TGT: cathepsin S (Homo sapiens, UniProt P25774)
IC50 / µM: 0.57
//
MOLECULE: CCOC(=O)/C(=C\N1CCN(C)CC1)NC(=O)[C@H](CC(C)C)NC(=O)OCc1ccccc1
TGT: cathepsin S (Homo sapiens, UniProt P25774)
IC50 / µM: 0.3
//
MOLECULE: CC(C)C[C@H](NC(=O)OCc1ccccc1)C(=O)NC(=CN)C(N)=O
TGT: cathepsin S (Homo sapiens, UniProt P25774)
IC50 / µM: 0.069
//
MOLECULE: COc1ccc(C(=O)/C(=C\N2CCOCC2)NC(=O)[C@H](CC(C)C)NC(=O)c2cc3ccccc3s2)cc1
TGT: cathepsin S (Homo sapiens, UniProt P25774)
IC50 / µM: 0.99

----------
TGT: UniProt P07154
PROCEDURE_SUMMARY: In vitro assay for inhibition of cathepsin L
Assay type: biochemical
CONDITION_CONTEXT: r rat cathepsin L, substrate N-CBZ-Phe-Arg-AMC, pH 5.0, 10 min incubation at room temperature

MOLECULE: CCOC(=O)/C(=C\N1CCOCC1)NC(=O)[C@H](CC(C)C)NC(=O)OCc1ccccc1 [Example 23]
TGT: UniProt P07154
IC50 [µM]: 0.089

MOLECULE: COC(=O)[C@H](Cc1ccccc1)N/C=C(\NC(=O)[C@H](Cc1ccccc1)NC(=O)OCc1ccccc1)C(N)=O [Example 30b]
TGT: UniProt P07154
IC50 [µM]: 0.035

MOLECULE: CC(C)C[C@H](NC(=O)OCc1ccccc1)C(=O)NC(=CNCc1ccccc1)C(N)=O [Example 5]
TGT: UniProt P07154
IC50 [µM]: 0.064

MOLECULE: CC(C)C[C@H](NC(=O)OCc1ccccc1)C(=O)N/C(=C\N1CCCCC1)C(N)=O [Example 9]
TGT: UniProt P07154
IC50 [µM]: 0.062

MOLECULE: CC(C)C[C@H](NC(=O)OCc1ccccc1)C(=O)N/C(=C/N1CCOCC1)C(=O)c1ccccc1 [Example 27]
TGT: UniProt P07154
IC50 [µM]: 4.24

MOLECULE: NC(=O)C(NC(=O)[C@H](Cc1ccccc1)NC(=O)OCc1ccccc1)C(O)O (stereo partly shown) [Example 13]
TGT: UniProt P07154
IC50 [µM]: 0.004

MOLECULE: CC(C)C[C@H](NC(=O)OCc1ccccc1)C(=O)N/C(=C\N1CCC(NC(=O)OC(C)(C)C)C1)C(N)=O (stereo partly shown) [Example 18]
TGT: UniProt P07154
IC50 [µM]: 0.12

MOLECULE: COC(=O)CN/C=C(/NC(=O)[C@H](Cc1ccccc1)NC(=O)OCc1ccccc1)C(N)=O [Example 31a]
TGT: UniProt P07154
IC50 [µM]: 0.017

MOLECULE: COc1ccc(C(=O)/C(=C\N2CCOCC2)NC(=O)[C@H](CC(C)C)NC(=O)c2cc3ccccc3s2)cc1 [Example 26]
TGT: UniProt P07154
IC50 [µM]: 0.075

MOLECULE: NC=C(NC(=O)[C@H](Cc1ccccc1)NC(=O)CCc1ccccc1)C(N)=O [Example 4]
TGT: UniProt P07154
IC50 [µM]: 0.015

MOLECULE: COC(=O)[C@H](Cc1ccccc1)N/C=C(/NC(=O)[C@H](Cc1ccccc1)NC(=O)OCc1ccccc1)C(N)=O [Example 30a]
TGT: UniProt P07154
IC50 [µM]: 0.048

MOLECULE: CC(C)C[C@H](NC(=O)OCc1ccccc1)C(=O)NC(=CNc1ccccc1)C(N)=O [Example 8]
TGT: UniProt P07154
IC50 [µM]: 2.36

MOLECULE: CCOC(=O)/C(=C\N1CCN(C)CC1)NC(=O)[C@H](CC(C)C)NC(=O)OCc1ccccc1 [Example 21]
TGT: UniProt P07154
IC50 [µM]: 0.21

MOLECULE: CCOC(=O)/C(=C\N1CCOCC1)NC(=O)[C@H](CC1CCCCC1)NC(=O)OCc1ccccc1 [Example 24]
TGT: UniProt P07154
IC50 [µM]: 0.082

MOLECULE: NC=C(NC(=O)[C@H](CC1CCCCC1)NC(=O)OCc1ccccc1)C(N)=O [Example 2]
TGT: UniProt P07154
IC50 [µM]: 0.072

MOLECULE: CC(C)C[C@H](NC(=O)OCc1ccccc1)C(=O)NC(=CN1CCOCC1)C(N)=O [Example 6]
TGT: UniProt P07154
IC50 [µM]: 0.075

All figures here come from patent US6635621B1.
